Observed IC50 values for Ubiquitin carboxyl-terminal hydrolase isozyme L3 (Homo sapiens, UniProt P15374) are listed in what follows.
measurement type: IC50 (µM)

Cc1ccc(C(=O)C2C(=O)C(=O)N(Cc3cccnc3)C2c2ccc(F)cc2)o1 (stereo unspecified) : 123

A. COc1ccc(C2C(C(=O)c3cccs3)C(=O)C(=O)N2c2nncs2)cc1 (stereo unspecified)
B. Cc1ccc(C(=O)C2C(=O)C(=O)N(Cc3ccccc3)C2c2cccnc2)o1 (stereo unspecified)
Q: Looking at recorded values for IC50, does A or B come in lower? Identify your selection by its label.
Ans: B

* * *

Target chain: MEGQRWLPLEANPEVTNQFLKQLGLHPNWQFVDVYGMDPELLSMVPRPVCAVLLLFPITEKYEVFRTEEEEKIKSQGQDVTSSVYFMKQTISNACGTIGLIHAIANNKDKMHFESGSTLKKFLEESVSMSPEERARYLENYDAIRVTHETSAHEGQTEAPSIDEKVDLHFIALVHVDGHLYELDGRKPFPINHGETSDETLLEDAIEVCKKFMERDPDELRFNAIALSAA
pIC50: −log10 of the molar value.
measurement type: pIC50

Below, each entry is followed by its recorded pIC50 result.
COc1ccc(N(CC(=O)NC2CC2)S(=O)(=O)c2ccc(C)cc2)cc1 : < 3.48
CCS(=O)(=O)Nc1cccc(C2=NN(C(C)=O)C(c3cccs3)C2)c1 (stereo not drawn) : < 3.48

Proceeding to the next compound to report its pIC50.
Per the record, COc1ccc(S(=O)(=O)N(CC(=O)NC2CC2)c2ccc(C)cc2)cc1 has pIC50 of < 3.40
